Source: patent US20210070843A1

test.target: full-length H1 A/California/07/2009 HA expressed on 293T cells (influenza A virus A/California/07/2009 (H1N1))
run.description: flow cytometry, HA-expressing 293T
parameter.measured: log10 of EC50 (log10 of the value in µg/mL)

binder | log10 of EC50
P25 (antibody, V domains shown) VH: EVQLVESGGGLVQPGGSLRLSCAASGFTISNGGIHWVRQAPGKGLEWVAGIGPYGGYTYYADSVKGRFTISADTSKNTAYLQTNSLRAEDTAVYYCARFYGYSGIMDYWGQGTLVTVSS VL: DIQMTQSPSSLSASVGDRVTITCRASQDVWGYVAWYQQKPGKAPKLLISGSRSLYSGVPSRFSGSGSGTDFTLTISSLQPEDFATYYCQQYYNYPITFGQGTKVEIKR | -0.12
P03 (antibody, V domains shown) VH: EVQLVESGGGLVQPGGSLRLSCAASGFTIDSFGIHWVRQAPGKGLEWVAFIGPFGGSTFYADSVKGRFTISADTSKNTAYLQMNSLRAEDTAVYYCARFDSNSYSYHGIMDYWGQGTLVTVSS VL: DIQMTQSPSSLSASVGDRVTITCRASQDVWGYVAWYQQKPGKAPKLLISWSGSLYSGVPSRFSGSGSGTDFTLTISSLQPEDFATYYCQQYYNWPVTFGQGTKVEIKR | -0.31
S01 (antibody, V domains shown) VH: EVQLVESGGGLVQPGGSLRLSCAASGFTINNYGIHWVRQAPGKGLEWVASIWPSGGYTSYADSVKGRFTISADTSKNTAYLQMNSLRAEDTAVYYCARFGLGDYDIMDYWGQGTLVTVSS VL: DIQMTQSPSSLSASVGDRVTITCRASQDVWGYVAWYQQKPGKAPKLLISFPSSLYSGVPSRFSGSGSGTDFTLTISSLQPEDFATYYCQQYYDGPVTFGQGTKVEIKR | -0.42
S51 (antibody, V domains shown) VH: EVQLVESGGGLVQPGGSLRLSCAASGFTIDDWGIHWVRQAPGKGLEWVAWIWPYGGFTSYADSVKGRFTISADTSKNTAYLQMNSLRAEDTAVYYCARFGFVDWNLMDYWGQGTLVTVSS VL: DIQMTQSPSSLSASVGDRVTITCRASQDVWGYVAWYQQKPGKAPKLLISYTTYLYSGVPSRFSGSGSGTDFTLTISSLQPEDFATYYCQQYYNSPVTFGQGTKVEIKR | -0.12
S07 (antibody, V domains shown) VH: EVQLVESGGGLVQPGGSLRLSCAASGFTINSSGIHWVRQAPGKGLEWVASIGPSWGSTYYADSVKGRFTISADTSKNTAYLQMNSLRAEDTAVYYCARFGIGDIDVMDYWGQGTLVTVSS VL: DIQMTQSPSSLSASVGDRVTITCRASQDVWGYVAWYQQKPGKAPKLLISYASFLYSGVPSRFSGSGSGTDFTLTISSLQPEDFATYYCQQYFNWPVTFGQGTKVEIKR | 0.21
P58 (antibody, V domains shown) VH: EVQLVESGGGLVQPGGSLRLSCAASGFTIGGGGIHWVRQAPGKGLEWVAWIWPYWGYTYYADSVKGRFTISADTSKNTAYLQMNSLRAEDTAVYYCARFNSYSYSGVMDYWGQGTLVTVSS VL: DIQMTQSPSSLSASVGDRVTITCRASQDVYSYVAWYQQKPGKAPKLLISSSRGLYSGVPSRFSGSGSGTDFTLTISSLQPEDFATYYCQQYSSFPITFGQGTKVEIKR | -0.60
P38 (antibody, V domains shown) VH: EVQLVESGGGLVQPGGSLRLSCAASGFTINDGGIHWVRQAPGKGLEWVAFIGPYGGSTFYADSVKGRFTISADTSKNTAYLQMNSLRAEDTAVYYCAGFIGDYSSYHGVMDYWGQGTLVTVSS VL: DIQMTQSPSSLSASVGDRVTITCRASQDVWGYVAWYQQKPGKAPKLLISWPGGLYSGVPSRFSGSGSGTDFTLTISSLQPEDFATYYCQQYSSFPLTFGQGTKVEIKR | 0.50
S40 (antibody, V domains shown) VH: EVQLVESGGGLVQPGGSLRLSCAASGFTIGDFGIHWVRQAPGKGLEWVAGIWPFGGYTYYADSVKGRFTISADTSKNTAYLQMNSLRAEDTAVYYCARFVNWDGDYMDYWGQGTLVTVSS VL: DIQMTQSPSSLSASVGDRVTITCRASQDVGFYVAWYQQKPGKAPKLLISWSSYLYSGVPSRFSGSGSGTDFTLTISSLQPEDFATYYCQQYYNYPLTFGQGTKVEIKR | -0.34
S45 (antibody, V domains shown) VH: EVQLVESGGGLVQPGGSLRLSCAASGFTINGSSIHWVRQAPGKGLEWVAYIGPFGGSTYYADSVKGRFTISADTSKNTAYLQMNSLRAEDTAVYYCARFWHGYNLYMDYWGQGTLVTVSS VL: DIQMTQSPSSLSASVGDRVTITCRASQDVGWWVAWYQQKPGKAPKLLIYGARFLYSGVPSRFSGSGSGTDFTLTISSLQPEDFATYYCQQYFNGPLTFGQGTKVEIKR | 0.65
S06 (antibody, V domains shown) VH: EVQLVESGGGLVQPGGSLRLSCAASGFTIGGGWIHWVRQAPGKGLEWVAFIGPYGGSTFYADSVKGRFTISADTSKNTAYLQMNSLRAEDTAVYYCARFNFGFWNHMDYWGQGTLVTVSS VL: DIQMTQSPSSLSASVGDRVTITCRASQDVSSWVAWYQQKPGKAPKLLIYGTTFLHSGVPSRFSGSGSGTDFTLTISSLQPEDFATYYCQQYYNGPLTFGQGTKVEIKR | 0.60
